Readings of koff for the listed binders
- target_under_test: T1, human pro-myostatin (human, UniProt O14793 24-375, biotinylated (in the SPR assay))
- T1 construct: Disulfide-linked homodimer; also called proGDF8 (human)
- assay_info: SPR Biacore 8K, biotin-antigen captured
assay_endpoint: koff (s⁻¹)

{"binder": "Ab108 (antibody, human IgG4 S228P, kappa, V domains shown) VH: EVQLVESGGGLVQPGGSLRLSCAASGSAFSSYGMSWVRQAPGKGLELVASINSNGGSTYYPDSVKGRFTISRDNAKNSLYLQMNSLRAEDTAVYYCARDLLVGFLQWSHYYGMDVWGQGTTVTVSS VL: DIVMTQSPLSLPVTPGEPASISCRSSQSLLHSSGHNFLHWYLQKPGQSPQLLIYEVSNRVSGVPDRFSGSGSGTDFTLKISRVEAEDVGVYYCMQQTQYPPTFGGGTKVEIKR", "assay_endpoint": "koff", "numeric_readout": 0.00105}
{"binder": "Ab107 (antibody, human IgG4 S228P, kappa, V domains shown) VH: EVQLVESGGGLVQPGGSLRLSCAASGSAFSSYGMSWVRQAPGKGLELVASINSNGGSTYYPDSVKGRFTISRDNAKNSLYLQMNSLRAEDTAVYYCARDQLVRFLEWSHYYGMDVWGQGTTVTVSS VL: DIVMTQSPLSLPVTPGEPASISCRSSQSLLHSSGHNFLHWYLQKPGQSPQLLIYAGSNRPSGVPDRFSGSGSGTDFTLKISRVEAEDVGVYYCAHATQLPHTFGGGTKVEIKR", "assay_endpoint": "koff", "numeric_readout": 0.000319}
{"binder": "Ab106 (antibody, human IgG4 S228P, kappa, V domains shown) VH: EVQLVESGGGLVQPGGSLRLSCAASGSAFSSYGMSWVRQAPGKGLELVASINSNGGSTYYPDSVKGRFTISRDNAKNSLYLQMNSLRAEDTAVYYCARDLLVRFLEWAGYYGMDVWGQGTTVTVSS VL: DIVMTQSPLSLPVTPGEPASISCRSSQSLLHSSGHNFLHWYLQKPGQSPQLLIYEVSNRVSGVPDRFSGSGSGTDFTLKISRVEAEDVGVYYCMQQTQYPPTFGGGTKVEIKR", "assay_endpoint": "koff", "numeric_readout": 0.000224}
